- System: UDP-3-O-acyl-N-acetylglucosamine deacetylase (Pseudomonas aeruginosa (strain ATCC 15692 / PAO1 / 1C / PRS 101 / LMG12228), UniProt P47205)
- Sequence (P47205 whole entry): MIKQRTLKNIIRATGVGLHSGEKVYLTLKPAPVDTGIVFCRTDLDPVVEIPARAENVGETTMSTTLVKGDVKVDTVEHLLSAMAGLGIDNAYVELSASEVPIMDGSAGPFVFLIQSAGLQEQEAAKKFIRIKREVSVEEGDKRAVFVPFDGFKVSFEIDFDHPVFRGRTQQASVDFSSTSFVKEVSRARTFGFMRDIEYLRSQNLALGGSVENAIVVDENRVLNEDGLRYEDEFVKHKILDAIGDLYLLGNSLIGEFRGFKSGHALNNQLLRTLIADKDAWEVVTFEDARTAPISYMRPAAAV
- Measurement description: Displacement of (S)-N-(2-(N-(3-biphenyl-4-ylcarboxamido-4-(hydroxyamino)-4-oxobutyl)sulfamoyl)ethyl)-3',6'-dihydroxy-3-oxo-3H-spiro[isobenzofuran-1,9'-xanthene]-5-carboxamide fluorescent probe from histidine tagged Pseudomonas aeruginosa LpxC (1-303) expressed in Escherichia coli BL21 (DE3) preincubated for 30 mins followed by addition of fluorscein probe measured after 2 hrs by fluorescence …
Parameter pIC50: see the listing below.
// pIC50 is dimensionless: -log10 of concentration (M)

* CC(O)c1nccn1Cc1ccc(C#Cc2ccccc2)cc1 (racemic) | 7.03

For reference, reported pIC50 for CS(=O)(=O)CC[C@@H](N)C(=O)Nc1cccc(OC(F)(F)F)c1 stands at 5.05

Per the record, OCc1nccn1CCCc1ccc(Cl)cc1 has pIC50 of 4.44

Summary for this compound, Clc1ccc(CCCn2ccnc2)cc1 : pIC50 is 3.90

The reported pIC50 of the compound CC(O)c1nccn1CCCc1ccc(Cl)cc1 (racemic) was 6.09

Please fill in: pIC50 reported for CC(O)c1nccn1Cc1ccc(-c2ccccc2)cc1 (racemic) = 6.26

// Clc1ccc(CCn2ccnc2)cc1 : pIC50 value = 2.56
